Test system: GCPA096 T1.II patient-derived AGCT cell line
Assay: Cell viability drug screen (Cell Titer Glo 2.0, 72 h), mono- and combination therapy, GCPA096T1.II
Settings: read-out: IC50 in monotherapy; GCPA096T1II; single drug; 72 h; unit not given (compared with Cmax/Css in uM)
Metric Name: IC50 (µM)
Number in µM, nothing else.

Ask: Specify IC50 for `N.N.O=C([O-])C1(C(=O)[O-])CCC1.[Pt+2]` , system GCPA096 T1.II patient-derived AGCT cell line.
Reply: 168

---

System: GCPA113 T1.I patient-derived AGCT cell line
Test: Cell viability drug screen (Cell Titer Glo 2.0, 72 h), mono- and combination therapy, GCPA113T1.I
Conditions: Homo sapiens
Metric Name: IC50 (µM)
Please state the figure in µM; there is no need to write the unit.

Ask: Supply reported IC50 belonging to this compound: Cc1nc(NC(=O)N2CCC[C@H]2C(N)=O)sc1-c1ccnc(C(C)(C)C(F)(F)F)c1 [Alpelisib]
Reply: 9.59
